pKd values for the binders below.
- measuredOn: GRASP, Q7Z6J2
- Sequence (Q7Z6J2 96-193): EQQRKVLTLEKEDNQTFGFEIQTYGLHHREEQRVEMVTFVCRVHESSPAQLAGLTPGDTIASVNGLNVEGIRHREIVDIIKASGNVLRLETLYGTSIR
- runDescription: holdup assay
- Parameters: key: below the threshold = too weak to quantify, mostly under pKd 3.1 to 4
- conditionDetails: plain residues with an end cap or a label only (N-terminal biotin on a linker: ttds)
reportedMetric: pKd

> print(dat)
                          binder  recordedmeasurement
1  DPRNTQTSQI [ABRAXAS2, Q15018]                 3.95
2     LCALPKVTTV [AGMAT, Q9BSE5]                 4.47
3       VNKVWDQSSV [CIT, O14578]                 4.33
